assay_system: ACAT (AcylCoA-Cholesterolacyltransferase) (Oryctolagus cuniculus, UniProt G1SFD9)
Construct: from tissue; host or cells: rabbit small intestine epithelium, microsome fraction
Sequence (G1SFD9 1-524): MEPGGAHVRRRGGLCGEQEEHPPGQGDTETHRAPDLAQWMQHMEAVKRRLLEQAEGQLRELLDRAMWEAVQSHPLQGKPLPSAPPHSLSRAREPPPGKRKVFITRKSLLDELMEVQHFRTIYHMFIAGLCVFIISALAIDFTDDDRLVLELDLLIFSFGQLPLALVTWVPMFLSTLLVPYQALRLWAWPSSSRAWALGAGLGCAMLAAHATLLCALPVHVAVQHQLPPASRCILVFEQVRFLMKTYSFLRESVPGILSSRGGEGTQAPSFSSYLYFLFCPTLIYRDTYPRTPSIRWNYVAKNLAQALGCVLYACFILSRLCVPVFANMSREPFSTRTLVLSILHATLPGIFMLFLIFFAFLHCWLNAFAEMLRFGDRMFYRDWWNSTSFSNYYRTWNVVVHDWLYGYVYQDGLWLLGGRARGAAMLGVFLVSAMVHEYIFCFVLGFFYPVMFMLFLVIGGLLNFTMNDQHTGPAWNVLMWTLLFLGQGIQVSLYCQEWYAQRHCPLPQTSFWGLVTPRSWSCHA
test_method_notes: ACAT inhibitory activity in test tube (method of Heider et al., [1-14C]oleylCoA, small intestine epithelium microsome fraction)
Format: biochemical, rabbit
measurement_parameters: read-out: Inhibitory Ratio (%)
Method: That is, a rabbit is fed a 1% cholesterol diet for 3 weeks followed by dissection and extraction of the small intestine. After peeling off the small intestine epithelium and crushing with a homogenizer, incompletely crushed solids are removed by centrifugal separation. […] The separated portion is scraped off and the radioactivity is measured using a liquid scintillation counter to calculate ACAT activity.
Reported inhibition at 200 µg/mL by item:
Please state the figure in %; there is no need to write the unit.

Sample answers from the record:
> print(dat)
                                   compound  reading
1         CCCCCCCC/C=C\CCCCCCCC(=O)OC(CO)CO      100
2  CCCCCCCC/C=C\CCCCCCCC(=O)OCC(O)CO (stereo not shown)      100
3  CC/C=C\C/C=C\C/C=C\CCCCCCCC(=O)OCC(O)CO (stereo not shown) [1-linolenoylglycerol]       92

Moving on to the next compound.
Task: If you can, please state the reported inhibition at 200 µg/mL value of CCCCCCCCCCCCCCCCCC(=O)OCC(O)CO (stereo not shown) [1-stearoylglycerol] .
Result: 49
